biological target: TYK2 (Homo sapiens); assay: TYK2 degradation MSD assay in human PBMC cells; assay type: cell-based; design: endogenous in cells; host or cells: human PBMC; conditions: 4 to 24 hours incubation, read-out: TYK2 MSD DC50 rating in human PBMC
Sequence (P29597 whole entry): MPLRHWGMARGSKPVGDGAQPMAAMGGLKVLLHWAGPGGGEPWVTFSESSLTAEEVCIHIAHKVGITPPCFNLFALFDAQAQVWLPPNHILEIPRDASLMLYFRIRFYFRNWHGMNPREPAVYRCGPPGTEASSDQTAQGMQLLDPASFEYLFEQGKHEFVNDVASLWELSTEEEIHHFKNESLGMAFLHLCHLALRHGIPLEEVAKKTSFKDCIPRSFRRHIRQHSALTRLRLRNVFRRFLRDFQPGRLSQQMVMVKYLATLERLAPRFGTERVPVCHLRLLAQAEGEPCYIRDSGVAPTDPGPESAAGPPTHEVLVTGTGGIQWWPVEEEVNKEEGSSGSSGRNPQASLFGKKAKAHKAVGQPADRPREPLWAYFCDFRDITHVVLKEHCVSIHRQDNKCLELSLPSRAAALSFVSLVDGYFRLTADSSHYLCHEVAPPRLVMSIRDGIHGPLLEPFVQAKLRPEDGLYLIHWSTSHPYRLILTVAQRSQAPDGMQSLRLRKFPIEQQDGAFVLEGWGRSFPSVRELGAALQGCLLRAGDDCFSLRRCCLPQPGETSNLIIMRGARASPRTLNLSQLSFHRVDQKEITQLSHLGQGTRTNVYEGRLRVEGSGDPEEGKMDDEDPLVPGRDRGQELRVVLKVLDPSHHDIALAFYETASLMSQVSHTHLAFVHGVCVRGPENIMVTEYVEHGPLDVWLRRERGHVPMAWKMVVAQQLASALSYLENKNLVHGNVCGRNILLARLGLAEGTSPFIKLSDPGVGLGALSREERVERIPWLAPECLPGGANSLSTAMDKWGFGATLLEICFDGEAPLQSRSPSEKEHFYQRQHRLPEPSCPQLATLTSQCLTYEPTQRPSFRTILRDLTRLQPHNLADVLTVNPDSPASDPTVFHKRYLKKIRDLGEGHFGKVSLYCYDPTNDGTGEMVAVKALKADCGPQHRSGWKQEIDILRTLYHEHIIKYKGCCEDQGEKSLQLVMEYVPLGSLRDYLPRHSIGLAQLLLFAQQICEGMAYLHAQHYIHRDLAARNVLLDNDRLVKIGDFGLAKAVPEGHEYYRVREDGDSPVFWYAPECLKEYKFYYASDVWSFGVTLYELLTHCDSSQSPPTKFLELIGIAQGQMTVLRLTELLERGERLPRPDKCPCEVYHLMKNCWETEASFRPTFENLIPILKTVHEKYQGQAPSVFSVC
assay_endpoint: DC50

Some compounds with recorded DC50:
compound: CNc1cc(Nc2cccc(CN3CCN(c4ccc5c(c4)n(C)c(=O)n5C4CCC(=O)NC4=O)CC3)c2)nn2c(C(=O)NC3CC3)cnc12 (stereo not drawn) [Example K591]
tested_system: TYK2 (Homo sapiens)
DC50: > 0.1 µM
//
compound: CNC(=O)c1cnc(Nc2ccc(C(=O)NCCCCc3cccc4c3n(C)c(=O)n4C3CCC(=O)NC3=O)cn2)cc1Nc1cccc(-c2ncc(F)cn2)c1OC (stereo not drawn) [Example K114]
tested_system: TYK2 (Homo sapiens)
DC50: < 0.001 µM
//
compound: CNc1cc(-c2ccc(-c3ccc(CN4CCC(CN5CCN(c6ccc7c(c6)n(C)c(=O)n7C6CCC(=O)NC6=O)CC5)CC4)cn3)cc2)nn2c(C(=O)N[C@@H]3C[C@@H]3F)cnc12 (stereo partly drawn) [Example K493]
tested_system: TYK2 (Homo sapiens)
DC50: > 0.1 µM
//
compound: CNc1cc(Nc2cccc(CN3CC(C)(Cc4ccc5c(c4)n(C)c(=O)n5C4CCC(=O)NC4=O)C3)c2)nn2c(C(=O)NC3CC3)cnc12 (stereo not drawn) [Example K607]
tested_system: TYK2 (Homo sapiens)
DC50: > 0.1 µM
//
compound: CNC1=CC(Nc2cccc(-c3ccc(CN4CC5(CCN(c6cccc7c(C8CCC(=O)NC8=O)cccc67)CC5)C4)cn3)c2)=NC2C(C(=O)N[C@@H]3C[C@@H]3F)=CN=C12 (stereo partly drawn) [Example K512]
tested_system: TYK2 (Homo sapiens)
DC50: > 0.1 µM

From here, focus on the item given below.
Query (compound): CNc1cc(Nc2cccn(-c3ccc(C(=O)NCCCCCCCCCCc4ccc5c(c4)n(C)c(=O)n5C4CCC(=O)NC4=O)cn3)c2=O)nn2c(C(=O)N[C@@H]3C[C@@H]3F)cnc12 (stereo partly drawn) [Example K261] ; field requested: DC50
< 0.001 µM
